experiment: physchem; type: physicochemical; conditions: pH 7.4, LogD, pH 7.4, incubation 1
Listed here are molecules together with their documented logD at 1 h.

O=C(NC1CCN(CCCCC2(C(=O)NCC(F)(F)F)c3ccccc3-c3ccccc32)CC1)c1ccccc1-c1ccc(C(F)(F)F)cc1 [Lomitapide, reference compound]: > 4.5
O=C(NC1CCN(CCCCC2(C(=O)NCC(F)(F)F)c3ccccc3-c3ccccc32)CC1)[C@@H]1[C@@H]2CC[C@@]1(c1ccc(C(F)(F)F)cc1)C2 (relative stereo): > 4.5
Cn1cc(C(=O)N[C@@H]2[C@H]3C[C@]2(c2cc(F)c(F)c(F)c2)CO3)c(C(F)F)n1 (relative stereo): 2.76

# context switch: different molecule, same logD at 1 h
Quick check: logD at 1 h of O=C(NC1CCN(CCCCC2(C(=O)NCC(F)(F)F)c3ccccc3-c3ccccc32)CC1)[C@@H]1[C@H]2C[C@]1(c1ccc(C(F)(F)F)cc1)CO2 (relative stereo) ? > 4.5

Entry source: paper PMC10396955
